These entries and their values trace back to patent US20090280138A1.

molecular target: T1, MHC class I molecule A*0101 (biotin (bound to streptavidin-coated plate)); assay: iTopia iScore
T1 construct: also called A1; HLA-A1
iScore listing for selected binders.

| binder | iScore |
| --- | --- |
| AALLAGRAL [5T4 9-mer peptide 101 AALLAGRAL] | 0 |
| IVPPEDERQ [5T4 9-mer peptide 92 IVPPEDERQ] | 0 |
| EHLPSLRQL [5T4 9-mer peptide 70 EHLPSLRQL] | 0 |
| VSSSSPTSS [5T4 9-mer peptide 15 VSSSSPTSS] | 0 |
| RTVKCVNRN [5T4 9-mer peptide 37 RTVKCVNRN] | 0 |
| FEGMVVAAL [5T4 9-mer peptide 98 FEGMVVAAL] | 0 |
| VKCVNRNLT [5T4 9-mer peptide 38 VKCVNRNLT] | 0 |
| RRLELASNH [5T4 9-mer peptide 107 RRLELASNH] | 0 |
| LLGWVSSSS [5T4 9-mer peptide 13 LLGWVSSSS] | 0 |
| LDLSHNPLA [5T4 9-mer peptide 74 LDLSHNPLA] | 0 |
| LCECSEAAR [5T4 9-mer peptide 33 LCECSEAAR] | 0 |
| NRNLTEVPT [5T4 9-mer peptide 40 NRNLTEVPT] | 0 |
| LPSLRQLDL [5T4 9-mer peptide 71 LPSLRQLDL] | 0 |
| HFLYLPRDV [5T4 9-mer peptide 111 HFLYLPRDV] | 0 |
| SPLVELILN [5T4 9-mer peptide 87 SPLVELILN] | 0 |
| FSSSAPFLA [5T4 9-mer peptide 21 FSSSAPFLA] | 0.023 |
